- System: H9c2
- Run Description: protection of cardiomyocytes from stress damage, SAR follow-up, cell-based, panel, H9c2 and HL-1, H2O2, 2-deoxyglucose, ATP luminescence (AID 651642)
- Condition Label: H9c2/HL-1 cardiomyocyte H2O2 oxidative damage, mean of runs, with H2O2
Calls of active or inactive are those of the source.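 Rule for the calls: active = average half-effect concentration of 10 µM or less in every one of the four cell panels; inactive = the rest.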
Hello, when you answer, please use one of the following outcomes: active, inactive

Observe how each entry below is paired with its result.
>>> category("CCOC(=O)c1cccc(NC(=O)CNC(=O)c2cc(-c3cc(OC)c(OC)c(OC)c3)nc3c(Cl)cccc23)c1")
"inactive"
>>> category("COC(=O)CNC(=O)c1cccc(NC(=O)c2cc(-c3cc(OC)c(OC)c(OC)c3)nc3ccccc23)c1")
"inactive"

q: Could you kindly confirm the outcome this assay logged for COc1cc(-c2cc(C(=O)Nc3cccc(C(=O)NCc4ccccc4)c3)c3ccccc3n2)cc(OC)c1OC ?
a: active
